System: DU-145
Experiment: Cytotoxicity against human DU145 cells by MTT assay
Assay type: functional, cell-based
result type: IC50

Examples with answers:
C=C(C(=O)O)[C@@H]1C[C@@H]2O[C@@]23CCC[C@H](C)[C@@]3(C)C1 ... > 50 µM
C=C(C(=O)O)[C@H]1C[C@@]23O[C@@]2(C)CCC[C@]3(C)C[C@@H]1OC(C)=O ... > 50 µM

Continue with the compound presented below.
Give the measured IC50 of C=C(C(=O)O)[C@@H]1CC=C2[C@H](O)CC[C@H](C)[C@@]2(C)C1 .
> 50 µM

###

Recorded pIC50 by entry
Tested on: HCT-116
Assay: Cytotoxicity against human HCT116 cells by MTT assay
Format: functional, cell-based
pIC50: −log10 of the molar value.

Solved entries:
C=C(C(=O)O)[C@@H]1CC=C2[C@H](O)CC[C@H](C)[C@@]2(C)C1 ... < 4.30
C=C(C(=O)O)[C@@H]1C[C@@H]2O[C@@]23CCC[C@H](C)[C@@]3(C)C1 ... < 4.30

Please find the next compound below.
Need pIC50, item C=C(C(=O)O)[C@H]1C[C@@]23O[C@@]2(C)CCC[C@]3(C)C[C@@H]1OC(C)=O
< 4.30
